Tested on: phosphorylation of Serine 473 in Akt
Assay: In vitro phospho-Ser473 Akt assay, Test (b)
Assay type: cell-based
Conditions: Homo sapiens, MDA-MB-468 cells, 2 hours incubation, read-out: IC50, inhibition of phosphorylation of Serine 473 in Akt
pIC50: −log10 of the molar value.
MEASURED METRIC: pIC50

Past entries and their recorded results:
INSERT INTO results (molecule, measured) VALUES
  ('O=C(Nc1cccc(-c2nc(-c3ccc(CO)s3)cc(N3CCOCC3)n2)c1)C1CCNCC1 [Example 1]', '~4.30'),
  ('COc1ncc(-c2cc(N3CCOCC3)nc(-c3cccc(NC(C)=O)c3)n2)cn1 [Example 2]', '~4.55');

Consider the molecule O=C(Nc1cccc(-c2nc(-c3ccc(CO)o3)cc(N3CCOCC3)n2)c1)C1CCNCC1 [Example 5] . State its measured pIC50.
~6.00

----------
Items are presented alongside their recorded pIC50.
Target: p110α Type Ia human PI3K (Homo sapiens)
Construct: full length DNA of each of the p110α, p110β and p110δ Type Ia human PI3K p110 isoforms; 6-His; Grp1 PH domain in E. coli
Sequence (P42336 whole entry, the tested form may be a part, canonical isoform): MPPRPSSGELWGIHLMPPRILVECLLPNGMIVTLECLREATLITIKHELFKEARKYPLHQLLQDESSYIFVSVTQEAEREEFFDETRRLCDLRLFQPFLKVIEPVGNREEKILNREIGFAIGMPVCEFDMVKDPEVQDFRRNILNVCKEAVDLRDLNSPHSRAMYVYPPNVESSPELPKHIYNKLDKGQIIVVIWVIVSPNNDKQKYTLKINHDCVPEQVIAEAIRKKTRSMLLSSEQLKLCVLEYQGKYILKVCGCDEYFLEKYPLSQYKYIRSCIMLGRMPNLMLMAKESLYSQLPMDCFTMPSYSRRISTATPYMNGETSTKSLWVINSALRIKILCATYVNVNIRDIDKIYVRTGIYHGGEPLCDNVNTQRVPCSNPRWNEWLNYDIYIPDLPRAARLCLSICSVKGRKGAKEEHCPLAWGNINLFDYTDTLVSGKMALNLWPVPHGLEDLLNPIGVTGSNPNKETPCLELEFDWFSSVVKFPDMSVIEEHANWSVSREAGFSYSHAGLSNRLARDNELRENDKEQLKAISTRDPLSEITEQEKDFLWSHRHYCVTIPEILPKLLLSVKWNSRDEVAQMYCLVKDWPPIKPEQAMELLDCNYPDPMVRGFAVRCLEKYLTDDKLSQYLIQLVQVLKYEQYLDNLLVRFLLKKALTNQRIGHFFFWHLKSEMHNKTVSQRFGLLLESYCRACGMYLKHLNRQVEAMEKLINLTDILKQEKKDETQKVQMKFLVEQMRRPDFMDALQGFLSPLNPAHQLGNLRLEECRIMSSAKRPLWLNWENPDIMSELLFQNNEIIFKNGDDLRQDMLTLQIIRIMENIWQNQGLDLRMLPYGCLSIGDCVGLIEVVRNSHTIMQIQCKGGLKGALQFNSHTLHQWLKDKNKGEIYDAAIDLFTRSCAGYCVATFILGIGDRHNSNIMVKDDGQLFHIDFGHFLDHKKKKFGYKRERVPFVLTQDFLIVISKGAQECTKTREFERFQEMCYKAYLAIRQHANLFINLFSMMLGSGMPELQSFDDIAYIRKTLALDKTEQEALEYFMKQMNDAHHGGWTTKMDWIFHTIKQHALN
Sequence (P27986 whole entry partner, the tested form may be a part, canonical isoform): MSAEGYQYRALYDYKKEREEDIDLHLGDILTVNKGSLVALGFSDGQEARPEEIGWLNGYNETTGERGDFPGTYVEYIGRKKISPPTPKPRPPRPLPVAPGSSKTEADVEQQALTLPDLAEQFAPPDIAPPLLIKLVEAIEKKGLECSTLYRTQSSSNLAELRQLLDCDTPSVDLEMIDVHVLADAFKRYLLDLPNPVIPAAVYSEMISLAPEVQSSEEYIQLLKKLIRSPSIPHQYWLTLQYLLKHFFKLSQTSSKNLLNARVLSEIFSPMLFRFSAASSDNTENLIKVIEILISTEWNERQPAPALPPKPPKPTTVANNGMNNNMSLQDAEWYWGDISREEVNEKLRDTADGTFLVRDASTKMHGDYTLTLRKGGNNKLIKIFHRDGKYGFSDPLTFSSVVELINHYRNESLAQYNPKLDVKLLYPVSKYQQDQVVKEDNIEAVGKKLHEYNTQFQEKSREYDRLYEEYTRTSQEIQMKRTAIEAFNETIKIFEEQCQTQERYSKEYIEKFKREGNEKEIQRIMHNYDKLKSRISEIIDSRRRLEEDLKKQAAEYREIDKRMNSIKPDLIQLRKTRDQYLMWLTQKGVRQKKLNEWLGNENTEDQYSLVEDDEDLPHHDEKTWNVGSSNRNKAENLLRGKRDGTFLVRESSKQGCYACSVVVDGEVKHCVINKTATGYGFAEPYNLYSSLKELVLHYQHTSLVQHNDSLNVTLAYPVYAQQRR
Assay: In vitro enzyme assay (AlphaScreen), Test (a)
Settings: recombinant enzyme, PI(4,5)P2 substrate, ATP 4 μM, read-out: IC50 versus p110α Type Ia human PI3K
Text: (a) In Vitro Enzyme Assay The assay used AlphaScreen technology (Gray et al., Analytical Biochemistry, 2003, 313: 234-245) to determine the ability of test compounds to inhibit phosphorylation by recombinant Type I PI3K enzymes of the lipid PI(4,5)P2. DNA fragments encoding human PI3K catalytic and regulatory subunits were isolated from cDNA libraries using standard molecular biology and PCR cloning techniques. The selected DNA fragments were used to generate baculovirus expression vectors. […]
pIC50: −log10 of the molar value.

Sample records with pIC50:
INSERT INTO measurements (compound, measured) VALUES
  ('COc1ncc(-c2cc(N3CCOCC3)nc(-c3cccc(NC(C)=O)c3)n2)cn1 [Example 2]', '~4.92'),
  ('O=C(Nc1cccc(-c2nc(-c3ccc(CO)o3)cc(N3CCOCC3)n2)c1)C1CCNCC1 [Example 5]', '~6.30'),
  ('O=C(Nc1cccc(-c2cc(N3CCOCC3)nc(-c3ccc(CO)o3)n2)c1)C1CCCNC1 (stereo not shown) [Example 4]', '~6.22');

With those in mind, consider the next compound.
Give the reported value of pIC50 for this record: O=C(Nc1cccc(-c2nc(-c3ccc(CO)s3)cc(N3CCOCC3)n2)c1)C1CCNCC1 [Example 1]
~5.00
